Target: PD brain-derived alpha-synuclein aggregates (Homo sapiens, UniProt P37840)
Construct: from tissue; host or cells: human PD donor brain, sarkosyl-insoluble pellet
Assay: Micro-radiobinding competition assay for the determination of binding affinity
Settings: 100 nM non-radiolabelled compound; competition over tritiated [3H]-Example-1 ligand; human PD brain-derived alpha-synuclein aggregates; read-out: Micro-radiobinding competition assay Competition at 100 nM (%)
Reported inhibition at 0.1 µM values for a set of molecules
In your response, put the unit directly after the numeric value.

May I ask what inhibition at 0.1 µM has been recorded for `O=C1N(c2cncs2)Cc2cc(-c3ccc(OCCF)nc3)nn21` ?
31%

Endpoint output: inhibition at 0.1 µM of `O=C1N(c2cccnc2)Cc2cc(-c3cnc(N4CC[C@H](F)C4)c(F)c3)nn21` . Value?
55%

inhibition at 0.1 µM for `O=C1N(c2ccns2)Cc2cc(-c3ccc(N4CC[C@H](F)C4)nc3)nn21` ?
82%

* * *

Biological target: PD brain-derived alpha-synuclein aggregates (Homo sapiens)
Construct: from tissue; host or cells: human PD donor brain, sarkosyl-insoluble pellet
Assay: Micro-radiobinding competition assay for the determination of binding affinity
Settings: human PD brain-derived alpha-synuclein aggregates; * = mean of two independent experiments, two donors
Structures can show the parent of a compound that is named as a salt.
quantity: Ki (nM)
# value in nM; strip the unit string

What Ki appears in the records for this compound with PD brain-derived alpha-synuclein aggregates (Homo sapiens)? Cc1ncc(N2Cc3cc(-c4ccc(N5CC[C@@H](F)C5)nc4)nn3C2=O)s1 [Example 18]
51

// map O=C1N(c2ccncc2)Cc2cc(-c3ccc(N4CC[C@H](F)C4)nc3)nn21 [Example 5, hydrochloride] to recorded Ki (system: PD brain-derived alpha-synuclein aggregates (Homo sapiens))
26

* * *

Target: PD brain-derived alpha-synuclein aggregates (Homo sapiens, UniProt P37840)
Assay: Micro-radiobinding competition assay for the determination of binding affinity
Details: human PD brain-derived alpha-synuclein aggregates; * = mean of two independent experiments, two donors
quantity: Ki
The number alone won't do; follow it with the unit.

Completed entries (count: 2):
smiles.representation: Cc1nc(N2CC[C@@H](F)C2)ccc1-c1cc2n(n1)C(=O)N(c1cccnc1)C2
target.system: PD brain-derived alpha-synuclein aggregates (Homo sapiens, UniProt P37840)
Ki: 80 nM

smiles.representation: O=C1N(c2cnn(CCF)c2)Cc2cc(-c3ccc(N4CCCC4)nc3)nn21
target.system: PD brain-derived alpha-synuclein aggregates (Homo sapiens, UniProt P37840)
Ki: 64 nM

Now consider a different compound.
PD brain-derived alpha-synuclein aggregates (Homo sapiens, UniProt P37840) / Ki / `Cc1ncc(N2Cc3cc(-c4ccc(N5CC[C@H](F)C5)nc4)nn3C2=O)s1` : value?
65 nM

* * *

Molecular target: pathological alpha-synuclein aggregates (Homo sapiens, UniProt P37840, G51D)
Construct: Frozen human brain sections from one familial PD case
Experiment: Autoradiography on frozen human brain sections (specific binding, Kd)
Conditions: human brain tissue sections, familial PD case (SNCA G51D missense mutation), autoradiography
Experimental: Frozen human brain sections from one familial PD case (alpha-synuclein [SNCA] gene G51D missense mutation), labelled as SNCA (G51D), one PDD case, one MSA case, one LBV case and two non-demented control (NDC) cases were first briefly fixed for 15 minutes at 4° C. with 4% paraformaldehyde (Sigma, 252549) and washed three times for five minutes with PBS (Dulbecco's phosphate buffered saline, Sigma) at RT. […]
quantity: pKd
A value of pKd is the negative decimal logarithm of a concentration given in moles per litre.

Look up pKd for this compound: [3H]c1cncc(N2Cc3cc(-c4cnc(N5CC[C@H](F)C5)c([3H])c4)nn3C2=O)c1 [[^3H]-Example-1]
7.36
